system_name: p300 (Homo sapiens)
Construct: host or cells: A549 P300 HiBit cells
assay_info: P300 degradation, HiBit technology in A549 P300 HiBit cells (2 h)
Type: cell-based
assay_conditions: A549, A549 P300 HiBit cells, 2 hrs post treatment
measured_quantity: Dmax

Illustrative cases are given below, each with its answer.
>>> value_reported("Cc1cc(-c2ccc(Nc3cc(C(C)C)c4c(c3)n(C)c(=O)n4C)cn2)cnc1C(=O)NCC#Cc1ccc2occ(C3CCC(=O)NC3=O)c2c1 (centres unmarked) [Example A125]")
"40 to 59%"
>>> value_reported("CN1C2CCC1CN(c1nc(-c3cccc4cc(-c5ccc(C(=O)NCC#Cc6ccc7occ(C8CCC(=O)NC8=O)c7c6)nc5)ncc34)cc3c1n(C)c(=O)n3C)C2 (centres unmarked) [Example A67]")
"60 to 79%"
>>> value_reported("CC(C)c1cc(-c2cccc3cc(-c4ccc(C(=O)NCc5ccc(-c6cnn(C7CCC(=O)NC7=O)c6)cc5)nc4)ncc23)cc2c1n(C)c(=O)n2C (centres unmarked) [Example A33]")
"< 20%"
>>> value_reported("Cc1cc2c(N3CCCc4cc(-c5ccc(C(=O)NCC#Cc6ccc7occ(C8CCC(=O)NC8=O)c7c6)nc5)c(C(F)F)cc43)cccc2n(C)c1=O (centres unmarked) [Example B22]")
"> 80%"
>>> value_reported("Cc1cc2c(N3CCCc4nc(-c5ccc(C(=O)NCC#Cc6ccc7occ([C@@H]8CCC(=O)NC8=O)c7c6)nc5)ncc43)cc(C3CCOCC3)cc2n(C)c1=O [Example B55]")
"> 80%"

Now consider a different compound.
Task item: Quick one: Dmax of Cc1cc2c(N3CCOc4nc(-c5ccc(C(=O)NCC#Cc6cc7c(C8CCC(=O)NC8=O)cccc7o6)nc5)ncc43)cc(C3CCOCC3)cc2n(C)c1=O (centres unmarked) [Example B96] ?
Reply: > 80%

###

system_name: CBP (Homo sapiens)
Construct: host or cells: A549 CBP HiBit cells
Sequence (Q92793 whole entry): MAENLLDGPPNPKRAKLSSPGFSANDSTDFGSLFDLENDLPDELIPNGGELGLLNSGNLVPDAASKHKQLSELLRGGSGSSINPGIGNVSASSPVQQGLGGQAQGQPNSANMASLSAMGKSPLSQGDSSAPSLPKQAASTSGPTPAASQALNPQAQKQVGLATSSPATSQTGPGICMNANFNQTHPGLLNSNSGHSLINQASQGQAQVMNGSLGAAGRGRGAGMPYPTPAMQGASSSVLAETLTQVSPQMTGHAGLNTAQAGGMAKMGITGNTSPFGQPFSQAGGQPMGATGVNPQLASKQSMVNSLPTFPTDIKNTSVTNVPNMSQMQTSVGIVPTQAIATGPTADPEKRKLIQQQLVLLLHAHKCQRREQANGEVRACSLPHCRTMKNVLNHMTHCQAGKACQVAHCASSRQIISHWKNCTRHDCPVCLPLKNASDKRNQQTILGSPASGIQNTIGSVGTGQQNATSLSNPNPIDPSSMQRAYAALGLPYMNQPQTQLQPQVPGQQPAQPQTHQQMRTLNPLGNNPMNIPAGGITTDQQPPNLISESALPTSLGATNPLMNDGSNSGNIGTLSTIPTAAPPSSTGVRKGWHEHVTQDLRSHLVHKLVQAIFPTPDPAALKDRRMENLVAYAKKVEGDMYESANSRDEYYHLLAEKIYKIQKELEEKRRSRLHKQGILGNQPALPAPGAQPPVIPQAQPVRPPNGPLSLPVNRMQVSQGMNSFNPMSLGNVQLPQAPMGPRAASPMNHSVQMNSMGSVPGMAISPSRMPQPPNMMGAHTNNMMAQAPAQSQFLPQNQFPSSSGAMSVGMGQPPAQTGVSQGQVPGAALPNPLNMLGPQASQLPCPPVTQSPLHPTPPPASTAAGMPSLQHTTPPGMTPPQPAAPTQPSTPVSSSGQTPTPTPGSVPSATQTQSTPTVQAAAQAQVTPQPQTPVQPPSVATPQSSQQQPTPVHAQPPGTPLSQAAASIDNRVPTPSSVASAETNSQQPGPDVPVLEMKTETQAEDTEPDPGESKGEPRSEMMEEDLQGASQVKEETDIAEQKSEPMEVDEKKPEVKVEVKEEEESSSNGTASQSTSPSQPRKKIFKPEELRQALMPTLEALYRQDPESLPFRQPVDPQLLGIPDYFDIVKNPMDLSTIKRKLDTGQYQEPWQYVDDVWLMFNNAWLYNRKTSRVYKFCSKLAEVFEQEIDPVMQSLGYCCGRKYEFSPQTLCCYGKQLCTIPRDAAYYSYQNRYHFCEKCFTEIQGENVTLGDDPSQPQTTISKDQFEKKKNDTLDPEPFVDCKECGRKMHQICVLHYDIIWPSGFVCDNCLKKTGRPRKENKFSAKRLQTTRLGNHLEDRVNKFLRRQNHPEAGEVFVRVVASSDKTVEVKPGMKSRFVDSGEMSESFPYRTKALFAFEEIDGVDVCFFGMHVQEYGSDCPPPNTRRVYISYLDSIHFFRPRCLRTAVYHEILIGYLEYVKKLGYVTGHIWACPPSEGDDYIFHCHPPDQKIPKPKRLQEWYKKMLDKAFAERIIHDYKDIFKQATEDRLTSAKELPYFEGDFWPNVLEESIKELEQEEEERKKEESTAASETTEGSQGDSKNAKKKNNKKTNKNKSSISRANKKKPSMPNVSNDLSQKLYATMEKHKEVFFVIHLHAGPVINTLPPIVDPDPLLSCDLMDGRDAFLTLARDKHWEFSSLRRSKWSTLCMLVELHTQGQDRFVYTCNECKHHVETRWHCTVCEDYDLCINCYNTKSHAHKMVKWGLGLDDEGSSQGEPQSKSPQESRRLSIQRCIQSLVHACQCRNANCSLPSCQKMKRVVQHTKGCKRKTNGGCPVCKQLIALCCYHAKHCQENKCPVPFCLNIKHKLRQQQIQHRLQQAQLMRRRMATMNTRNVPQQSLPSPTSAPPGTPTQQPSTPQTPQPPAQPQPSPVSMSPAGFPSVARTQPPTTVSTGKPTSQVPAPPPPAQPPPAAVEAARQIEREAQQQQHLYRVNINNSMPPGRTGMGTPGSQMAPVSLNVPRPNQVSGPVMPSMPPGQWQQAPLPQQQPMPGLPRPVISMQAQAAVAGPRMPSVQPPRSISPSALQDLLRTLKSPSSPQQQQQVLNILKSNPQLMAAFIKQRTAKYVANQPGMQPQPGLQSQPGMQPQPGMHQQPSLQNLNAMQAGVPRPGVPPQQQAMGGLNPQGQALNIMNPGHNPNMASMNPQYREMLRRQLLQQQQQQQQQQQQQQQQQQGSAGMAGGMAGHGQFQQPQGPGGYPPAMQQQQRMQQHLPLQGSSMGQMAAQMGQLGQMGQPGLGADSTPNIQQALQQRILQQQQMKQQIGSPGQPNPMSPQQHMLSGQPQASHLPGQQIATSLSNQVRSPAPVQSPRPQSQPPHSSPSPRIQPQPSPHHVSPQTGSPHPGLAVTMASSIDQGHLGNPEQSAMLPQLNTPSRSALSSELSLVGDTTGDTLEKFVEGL
assay_info: CBP degradation, HiBit technology in A549 CBP HiBit cells (24 h)
Type: cell-based
assay_conditions: 24 hrs post treatment
Overview of recorded DC50 for various compounds

Recorded results for 5 compounds are shown here.
>>> value_reported("Cn1c(=O)n(C)c2c(N3CCOCC3)cc(N3CCCc4nc(-c5ccc(C(=O)NCC#Cc6ccc7occ(C8CCC(=O)NC8=O)c7c6)nc5)ncc43)cc21 (stereo not drawn) [Example A127]")
"> 1000 nM"
>>> value_reported("Cc1cc2c(N3CCCc4nc(-c5ccc(C(=O)NCC#Cc6cc7c(C8CCC(=O)NC8=O)nccc7o6)nc5)ncc43)cccc2n(C)c1=O (stereo not drawn) [Example B106]")
"100 to 999 nM"
>>> value_reported("Cc1cc(-c2ncc3c(n2)CCCN3c2cccc3c2cc(C)c(=O)n3C)cnc1C(=O)NCC#Cc1cc2c(C3CCC(=O)NC3=O)cccc2o1 (stereo not drawn) [Example B153]")
"100 to 999 nM"
>>> value_reported("Cc1cc2c(N3CCCc4nc(-c5ccc(C(=O)NCC#Cc6cc7c(C8CCC(=O)NC8=O)cccc7o6)nc5)ncc43)nc(N3CCC(C)(O)CC3)cc2n(C)c1=O (stereo not drawn) [Example B162]")
"> 1000 nM"
>>> value_reported("Cc1cc(-c2ncc3c(n2)OCCN3c2ccc3c(c2)n(C)c(=O)n3C)cnc1C(=O)NCC#Cc1cc2ccnc(C3CCC(=O)NC3=O)c2o1 (stereo not drawn) [Example A251]")
"> 1000 nM"

Task item: Which DC50 value is on record for Cc1cc2c(N3CCCc4nc(-c5ccc(C(=O)NCC#Cc6ccc7occ([C@@H]8CCC(=O)NC8=O)c7c6)nc5)ncc43)nc(N3CCOCC3)cc2n(C)c1=O [Example B73] ?
Reply: > 1000 nM

###

system_name: p300 (Homo sapiens)
Construct: host or cells: A549 P300 HiBit cells
assay_info: P300 degradation, HiBit technology in A549 P300 HiBit cells (2 h)
Assay type: cell-based
assay_conditions: A549, A549 P300 HiBit cells, 2 hrs post treatment
measured_quantity: Dmax

>>> value_reported("Cc1cc2c(N3CCCc4nc(-c5ccc(C(=O)NCC#Cc6cc7c(C8CCC(=O)NC8=O)cccc7o6)nc5)ncc43)cc(C3CCOCC3)nc2n(C)c1=O (stereo not drawn)")
"> 80%"
>>> value_reported("COc1cc(-c2cc3cccc(-c4cc(C(C)C)c5c(c4)n(C)c(=O)n5C)c3cn2)cnc1C(=O)NCC#Cc1ccc2c(c1)c(C1CCC(=O)NC1=O)nn2C (stereo not drawn)")
"> 80%"
>>> value_reported("Cc1cc2c(N3CCCc4nc(-c5ccc(C(=O)NCC#Cc6ccc7occ(C8CCC(=O)NC8=O)c7c6)nc5)ncc43)cncc2n(C)c1=O (stereo not drawn)")
"40 to 59%"
>>> value_reported("Cn1c(=O)oc2cc(N3CCOc4nc(-c5ccc(C(=O)NCC#Cc6ccc7occ(C8CCC(=O)NC8=O)c7c6)nc5)ncc43)ccc21 (stereo not drawn)")
"< 20%"
>>> value_reported("CC(C)c1cc(-c2cccc3cc(-c4ccc(C(=O)NC/C=C/c5cc(NC6CCC(=O)NC6=O)nn5C)nc4)ncc23)cc2c1n(C)c(=O)n2C (stereo not drawn)")
"20 to 39%"
>>> value_reported("Cc1cc(-c2ccc(N(C)c3cc(C(C)C)c4c(c3)n(C)c(=O)n4C)cn2)cnc1C(=O)NCC#Cc1cc(NC2CCC(=O)NC2=O)nn1C (stereo not drawn)")
"60 to 79%"

Task item: # value lookup — system p300 (Homo sapiens), readout Dmax, item CCc1cc(-c2cccc3cc(-c4ccc(C(=O)NCC#Cc5ccc6cnn(C7CCC(=O)NC7=O)c6c5)nc4)ncc23)c2c(n1)N(C)C(=O)N(C)C2 (stereo not drawn)
Reply: > 80%

Task item: Missing value: Dmax, p300 (Homo sapiens), entry Cc1cc2c(N3CCCc4nc(-c5ccc(C(=O)NCC#Cc6cc7c([C@H]8CCC(=O)NC8=O)cccc7o6)nc5)ncc43)nc(N3CCOCC3)cc2n(C)c1=O . Fill in?
Reply: > 80%

Task item: Test system p300 (Homo sapiens); read-out Dmax; what value for Cc1cc(-c2cc3cccc(-c4ccc5c(c4)n(C)c(=O)n5C)c3cn2)cnc1C(=O)NCC#Cc1cc2c([C@H]3CCC(=O)NC3=O)cccc2o1 ?
Reply: > 80%

Task item: Missing value: Dmax, p300 (Homo sapiens), entry Cc1cc(-c2ccc(N(C)c3cc(C(C)C)c4c(c3)n(C)c(=O)n4C)cc2Cl)cnc1C(=O)NCC#Cc1cccc(NC2CCC(=O)NC2=O)c1 (stereo not drawn) . Fill in?
Reply: 60 to 79%

Task item: State its Dmax on p300 (Homo sapiens): Cn1c(=O)n(C)c2c(N3CC4CCC(C3)O4)nc(-c3cccc4cc(-c5ccc(C(=O)NCC#Cc6ccc7occ(C89CC(C8)C(=O)NC9=O)c7c6)nc5)ncc34)cc21
Reply: > 80%

Task item: Enter reported Dmax observed with p300 (Homo sapiens) for CC(C)c1cc(-c2cccc3cc(-c4ccc(C(=O)NCC#Cc5cnc6occ(C7CCC(=O)NC7=O)c6c5)nc4)ncc23)cc2c1n(C)c(=O)n2C (stereo not drawn)
Reply: > 80%

###

system_name: p300 (Homo sapiens, UniProt Q09472)
Construct: host or cells: A549 P300 HiBit cells
Sequence (Q09472 whole entry): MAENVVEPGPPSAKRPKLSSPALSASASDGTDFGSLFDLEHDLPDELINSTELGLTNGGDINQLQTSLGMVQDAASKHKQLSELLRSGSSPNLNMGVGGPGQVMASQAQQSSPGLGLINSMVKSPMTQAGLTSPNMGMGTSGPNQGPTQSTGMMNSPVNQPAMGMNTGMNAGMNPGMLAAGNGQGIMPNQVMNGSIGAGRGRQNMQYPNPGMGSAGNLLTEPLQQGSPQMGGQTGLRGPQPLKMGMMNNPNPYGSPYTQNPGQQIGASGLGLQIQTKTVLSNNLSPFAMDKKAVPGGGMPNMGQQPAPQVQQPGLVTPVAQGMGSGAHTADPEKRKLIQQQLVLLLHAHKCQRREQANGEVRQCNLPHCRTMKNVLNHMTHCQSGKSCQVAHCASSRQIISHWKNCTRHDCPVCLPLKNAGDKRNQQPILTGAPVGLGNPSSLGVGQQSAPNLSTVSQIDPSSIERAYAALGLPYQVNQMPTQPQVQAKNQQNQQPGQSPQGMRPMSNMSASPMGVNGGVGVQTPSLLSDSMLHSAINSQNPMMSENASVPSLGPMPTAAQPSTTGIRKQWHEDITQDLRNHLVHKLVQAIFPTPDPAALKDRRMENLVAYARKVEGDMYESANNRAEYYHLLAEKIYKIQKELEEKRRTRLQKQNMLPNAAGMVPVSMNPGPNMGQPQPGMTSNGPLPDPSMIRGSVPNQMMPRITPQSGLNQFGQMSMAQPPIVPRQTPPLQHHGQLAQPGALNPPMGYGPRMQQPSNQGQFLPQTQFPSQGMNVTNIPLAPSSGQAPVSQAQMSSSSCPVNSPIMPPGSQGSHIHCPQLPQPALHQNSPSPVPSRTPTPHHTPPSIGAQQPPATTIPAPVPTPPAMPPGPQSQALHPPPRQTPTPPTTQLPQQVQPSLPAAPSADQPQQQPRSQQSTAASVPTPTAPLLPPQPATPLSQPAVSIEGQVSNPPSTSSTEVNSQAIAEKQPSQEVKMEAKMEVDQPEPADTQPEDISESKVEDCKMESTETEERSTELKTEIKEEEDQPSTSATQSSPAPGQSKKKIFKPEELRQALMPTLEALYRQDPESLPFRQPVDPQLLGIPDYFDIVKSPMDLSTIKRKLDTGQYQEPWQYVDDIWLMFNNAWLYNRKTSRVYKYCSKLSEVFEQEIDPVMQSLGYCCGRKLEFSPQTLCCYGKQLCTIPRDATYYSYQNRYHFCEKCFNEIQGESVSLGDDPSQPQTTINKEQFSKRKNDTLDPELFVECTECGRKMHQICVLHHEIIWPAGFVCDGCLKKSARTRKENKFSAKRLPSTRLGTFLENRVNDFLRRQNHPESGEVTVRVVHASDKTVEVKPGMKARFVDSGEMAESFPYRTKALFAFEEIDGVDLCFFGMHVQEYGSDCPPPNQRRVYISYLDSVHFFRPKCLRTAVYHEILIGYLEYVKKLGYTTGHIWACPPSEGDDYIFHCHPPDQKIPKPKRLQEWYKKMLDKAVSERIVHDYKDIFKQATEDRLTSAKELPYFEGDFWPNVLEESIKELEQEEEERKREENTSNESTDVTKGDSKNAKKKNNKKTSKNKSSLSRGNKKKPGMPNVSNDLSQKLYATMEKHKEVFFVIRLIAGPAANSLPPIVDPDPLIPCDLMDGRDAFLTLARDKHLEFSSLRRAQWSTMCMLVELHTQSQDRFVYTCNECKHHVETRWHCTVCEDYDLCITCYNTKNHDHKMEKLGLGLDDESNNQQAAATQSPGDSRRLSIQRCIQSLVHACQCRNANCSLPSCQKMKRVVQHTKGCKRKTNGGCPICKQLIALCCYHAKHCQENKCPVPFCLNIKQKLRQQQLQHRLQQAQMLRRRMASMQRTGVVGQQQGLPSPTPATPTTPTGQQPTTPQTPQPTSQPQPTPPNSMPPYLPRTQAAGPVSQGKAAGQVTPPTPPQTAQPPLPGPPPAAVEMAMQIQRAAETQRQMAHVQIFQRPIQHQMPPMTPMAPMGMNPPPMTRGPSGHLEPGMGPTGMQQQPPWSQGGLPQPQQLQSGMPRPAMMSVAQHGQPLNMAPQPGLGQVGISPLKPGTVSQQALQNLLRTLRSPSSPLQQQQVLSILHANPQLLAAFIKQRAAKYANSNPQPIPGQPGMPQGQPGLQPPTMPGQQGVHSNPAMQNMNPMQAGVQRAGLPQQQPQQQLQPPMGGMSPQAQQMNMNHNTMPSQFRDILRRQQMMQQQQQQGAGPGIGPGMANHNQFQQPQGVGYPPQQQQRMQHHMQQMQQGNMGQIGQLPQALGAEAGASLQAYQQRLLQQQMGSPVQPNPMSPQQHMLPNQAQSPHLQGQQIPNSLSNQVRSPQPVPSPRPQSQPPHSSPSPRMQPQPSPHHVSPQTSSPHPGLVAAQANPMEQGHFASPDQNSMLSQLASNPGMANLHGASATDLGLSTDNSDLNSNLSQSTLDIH
assay_info: P300 degradation, HiBit technology in A549 P300 HiBit cells (2 h)
Type: cell-based
assay_conditions: A549 P300 HiBit cells, 2 hrs post treatment
measured_quantity: DC50

>>> value_reported("CC(C)c1cc(N2CCOc3nc(-c4ccc(C(=O)NCC#Cc5ccc6occ(C7CCC(=O)NC7=O)c6c5)nc4)ncc32)cc2c1n(C)c(=O)n2C (stereo not drawn) [Example A89]")
"> 1000 nM"
>>> value_reported("Cc1cc(-c2ncc(N(C)c3cc(C(C)C)c4c(c3)n(C)c(=O)n4C)cn2)cnc1C(=O)NCC#Cc1cc2c(C3CCC(=O)NC3=O)coc2cc1F (stereo not drawn) [Example A235]")
"1 to 9.9 nM"
>>> value_reported("Cn1c(=O)n(C)c2c(-n3cccn3)nc(-c3cccc4cc(-c5ccc(C(=O)NCC#Cc6ccc7occ(C8CCC(=O)NC8=O)c7c6)nc5)ncc34)cc21 (stereo not drawn) [Example A152]")
"10 to 99 nM"
>>> value_reported("Cc1cc2c(N3CCCc4nc(-c5ccc(C(=O)NCC#Cc6ccc7occ(C8CCC(=O)NC8=O)c7c6)nc5)ncc43)cc(C3CCOCC3)cc2n(C)c1=O (stereo not drawn) [Example B53]")
"< 1 nM"
>>> value_reported("Cc1cc2c(N3CCCc4nc(-c5ccc(C(=O)NCC#Cc6cc7c([C@@H]8CCC(=O)NC8=O)cccc7o6)nc5)ncc43)cc(C3CCOCC3)cc2n(C)c1=O [Example B39]")
"1 to 9.9 nM"

Task item: Please report the recorded DC50 for CCc1cc(N(C)c2ccc(-c3cnc(C(=O)NCC#Cc4cccc(NC5CCC(=O)NC5=O)c4)c(C)c3)c(F)c2)c2cc(C)c(=O)n(C)c2c1 (stereo not drawn) [Example B19] .
Reply: 10 to 99 nM
